tested on: B. subtilis 168; test: Bliss interaction score (quartile over a dose matrix) (fitness difference); higher = more antagonism (negative = synergy);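 further: first quartile when negative (synergy) and third quartile when positive (antagonism)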
Classification field: Y = Bliss interaction score at or over -0.07; N = Bliss interaction score under -0.07.

## Task Item CCCCCCCCCC(=O)N[C@@H](Cc1c[nH]c2ccccc12)C(=O)N[C@H](CC(N)=O)C(=O)N[C@@H](CC(=O)O)C(=O)N[C@@H]1C(=O)NCC(=O)N[C@@H](CCCN)C(=O)N[C@@H](CC(=O)O)C(=O)N[C@H](C)C(=O)N[C@@H](CC(=O)O)C(=O)NCC(=O)N[C@H](CO)C(=O)N[C@@H]([C@H](C)CC(=O)O)C(=O)N[C@@H](CC(=O)c2ccccc2N)C(=O)O[C@@H]1C [Daptomycin] + O=C1CN(/N=C/c2ccc([N+](=O)[O-])o2)C(=O)N1 [Nitrofurantoin] with Bliss interaction score of -0.07 or above?
## Result N

## Task Decide: is the reported value of Bliss interaction score for CCCCCCCCCC(=O)N[C@@H](Cc1c[nH]c2ccccc12)C(=O)N[C@H](CC(N)=O)C(=O)N[C@@H](CC(=O)O)C(=O)N[C@@H]1C(=O)NCC(=O)N[C@@H](CCCN)C(=O)N[C@@H](CC(=O)O)C(=O)N[C@H](C)C(=O)N[C@@H](CC(=O)O)C(=O)NCC(=O)N[C@H](CO)C(=O)N[C@@H]([C@H](C)CC(=O)O)C(=O)N[C@@H](CC(=O)c2ccccc2N)C(=O)O[C@@H]1C [Daptomycin] + CN(N=O)C(=O)N[C@@H](C=O)[C@@H](O)[C@H](O)[C@H](O)CO [Streptozotocin] equal to or greater than -0.07?
## Result Y

## Task Given the entry CC1(C)S[C@@H]2[C@H](NC(=O)[C@H](N)c3ccc(O)cc3)C(=O)N2[C@H]1C(=O)O [Amoxicillin] + CC(=O)O[C@H]1C[C@@]2(C)[C@@H](C[C@@H](O)[C@H]3[C@@]4(C)CC[C@@H](O)[C@@H](C)[C@@H]4CC[C@@]32C)/C1=C(\CCC=C(C)C)C(=O)O [Fusidic acid] , answer whether its Bliss interaction score meets or surpasses -0.07.
## Result Y

## Task # bool: Bliss interaction score of CO/N=C(\C(=O)N[C@@H]1C(=O)N2C(C(=O)[O-])=C(C[N+]3(C)CCCC3)CS[C@H]12)c1csc(N)n1 [Cefepime] + CO/N=C(\C(=O)N[C@@H]1C(=O)N2C(C(=O)O)=C(COC(C)=O)CS[C@H]12)c1csc(N)n1 [Cefotaxime] >= -0.07
## Result Y

###

tested on: B. subtilis 168; assay: Bliss interaction score (quartile over a dose matrix) (fitness difference); higher = more antagonism (negative = synergy);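 further: first quartile when negative (synergy) and third quartile when positive (antagonism)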
VALUE TYPE: Bliss interaction score

Entry CN(C)C(=O)C(CCN1CCC(O)(c2ccc(Cl)cc2)CC1)(c1ccccc1)c1ccccc1 [Loperamide] + COc1ccc(C[C@H](N)C(=O)N[C@H]2[C@@H](O)[C@H](n3cnc4c(N(C)C)ncnc43)O[C@@H]2CO)cc1 [Puromycin] , Bliss interaction score reported as -0.121

response.value for C[C@H]1COc2c(N3CCN(C)CC3)c(F)cc3c(=O)c(C(=O)O)cn1c23 [Levofloxacin] + CN[C@@H]1[C@H](O[C@H]2[C@H](O[C@H]3[C@H](O)[C@@H](O)[C@H](N=C(N)N)[C@@H](O)[C@@H]3N=C(N)N)O[C@@H](C)[C@]2(O)C=O)O[C@@H](CO)[C@H](O)[C@H]1O [Streptomycin] (field: Bliss interaction score) = 0.0365

For reference, reported Bliss interaction score for CCCCCCCCCC(=O)N[C@@H](Cc1c[nH]c2ccccc12)C(=O)N[C@H](CC(N)=O)C(=O)N[C@@H](CC(=O)O)C(=O)N[C@@H]1C(=O)NCC(=O)N[C@@H](CCCN)C(=O)N[C@@H](CC(=O)O)C(=O)N[C@H](C)C(=O)N[C@@H](CC(=O)O)C(=O)NCC(=O)N[C@H](CO)C(=O)N[C@@H]([C@H](C)CC(=O)O)C(=O)N[C@@H](CC(=O)c2ccccc2N)C(=O)O[C@@H]1C [Daptomycin] + Oc1cc(Cl)ccc1Oc1ccc(Cl)cc1Cl [Triclosan] stands at -0.0488

response.value for CCCCCCCCCC(=O)N[C@@H](Cc1c[nH]c2ccccc12)C(=O)N[C@H](CC(N)=O)C(=O)N[C@@H](CC(=O)O)C(=O)N[C@@H]1C(=O)NCC(=O)N[C@@H](CCCN)C(=O)N[C@@H](CC(=O)O)C(=O)N[C@H](C)C(=O)N[C@@H](CC(=O)O)C(=O)NCC(=O)N[C@H](CO)C(=O)N[C@@H]([C@H](C)CC(=O)O)C(=O)N[C@@H](CC(=O)c2ccccc2N)C(=O)O[C@@H]1C [Daptomycin] + COc1cccc2c1C(=O)c1c(O)c3c(c(O)c1C2=O)C[C@@](O)(C(=O)CO)C[C@@H]3O[C@H]1C[C@H](N)[C@H](O)[C@H](C)O1 [Doxorubicin] (field: Bliss interaction score) = 0.0744

Bliss interaction score measured on CCCCCCCCCC(=O)N[C@@H](Cc1c[nH]c2ccccc12)C(=O)N[C@H](CC(N)=O)C(=O)N[C@@H](CC(=O)O)C(=O)N[C@@H]1C(=O)NCC(=O)N[C@@H](CCCN)C(=O)N[C@@H](CC(=O)O)C(=O)N[C@H](C)C(=O)N[C@@H](CC(=O)O)C(=O)NCC(=O)N[C@H](CO)C(=O)N[C@@H]([C@H](C)CC(=O)O)C(=O)N[C@@H](CC(=O)c2ccccc2N)C(=O)O[C@@H]1C [Daptomycin] + C[C@H]1c2cccc(O)c2C(=O)C2=C(O)[C@]3(O)C(=O)C(C(N)=O)=C(O)[C@@H](N(C)C)[C@@H]3[C@@H](O)[C@@H]21 [Doxycycline] = 0.0559

For this molecule ( CC1(C)S[C@@H]2[C@H](NC(=O)[C@H](N)c3ccc(O)cc3)C(=O)N2[C@H]1C(=O)O [Amoxicillin] + COc1c(N2C[C@@H]3CCCN[C@@H]3C2)c(F)cc2c(=O)c(C(=O)O)cn(C3CC3)c12 [Moxifloxacin] ), measured Bliss interaction score is 0.0481

Measured Bliss interaction score, CC1(C)S[C@@H]2[C@H](NC(=O)[C@H](N)c3ccc(O)cc3)C(=O)N2[C@H]1C(=O)O [Amoxicillin] + C1=CC(=CC(=C1)Cl)NN=C(C#N)C#N [CCCP] : 0.115

Reported Bliss interaction score for CCCCCCCCCC(=O)N[C@@H](Cc1c[nH]c2ccccc12)C(=O)N[C@H](CC(N)=O)C(=O)N[C@@H](CC(=O)O)C(=O)N[C@@H]1C(=O)NCC(=O)N[C@@H](CCCN)C(=O)N[C@@H](CC(=O)O)C(=O)N[C@H](C)C(=O)N[C@@H](CC(=O)O)C(=O)NCC(=O)N[C@H](CO)C(=O)N[C@@H]([C@H](C)CC(=O)O)C(=O)N[C@@H](CC(=O)c2ccccc2N)C(=O)O[C@@H]1C [Daptomycin] + C[C@@H]1O[C@@H]1P(=O)(O)O [Fosfomycin] was 0.063

# molecule C[C@H]1COc2c(N3CCN(C)CC3)c(F)cc3c(=O)c(C(=O)O)cn1c23 [Levofloxacin] + Clc1ccc(COC(Cn2ccnc2)c2ccc(Cl)cc2Cl)c(Cl)c1 [Miconazole] ; its Bliss interaction score = 0.0649

Reported Bliss interaction score ( CO/N=C(\C(=O)N[C@@H]1C(=O)N2C(C(=O)[O-])=C(C[N+]3(C)CCCC3)CS[C@H]12)c1csc(N)n1 [Cefepime] + CC[C@H]1OC(=O)[C@H](C)C(=O)[C@H](C)[C@@H](O[C@@H]2O[C@H](C)C[C@H](N(C)C)[C@H]2O)[C@](C)(OC)C[C@@H](C)C(=O)[C@H](C)[C@H]2N(CCCCn3cnc(-c4cccnc4)c3)C(=O)O[C@]12C [Telithromycin] ) = 0.122

So, CC1(C)S[C@@H]2[C@H](NC(=O)[C@H](N)c3ccc(O)cc3)C(=O)N2[C@H]1C(=O)O [Amoxicillin] + CCP(CC)CC.CC(=O)OC[C@@H]1[C@H]([C@@H]([C@H]([C@@H](O1)[S-])OC(=O)C)OC(=O)C)OC(=O)C.[Au+] [Auranofin] ? Its Bliss interaction score was -0.0508

Recorded result, CO/N=C(\C(=O)N[C@@H]1C(=O)N2C(C(=O)[O-])=C(C[N+]3(C)CCCC3)CS[C@H]12)c1csc(N)n1 [Cefepime] + O=C(O)c1cn(C2CC2)c2cc(N3CCNCC3)c(F)cc2c1=O [Ciprofloxacin] , Bliss interaction score: -0.193

###

test system: B. subtilis 168; test: Bliss interaction score (quartile over a dose matrix) (fitness difference); higher = more antagonism (negative = synergy);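 further: first quartile when negative (synergy) and third quartile when positive (antagonism)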
Bliss interaction score of 0.04 or higher: y. Under 0.04: n.

## Task Given CC1(C)S[C@@H]2[C@H](NC(=O)[C@H](N)c3ccc(O)cc3)C(=O)N2[C@H]1C(=O)O [Amoxicillin] + CN(N=O)C(=O)N[C@@H](C=O)[C@@H](O)[C@H](O)[C@H](O)CO [Streptozotocin] , state whether its Bliss interaction score is at least 0.04.
## Result n

## Task Would you say CN(C)C(=O)C(CCN1CCC(O)(c2ccc(Cl)cc2)CC1)(c1ccccc1)c1ccccc1 [Loperamide] + Cc1onc(-c2ccccc2)c1C(=O)N[C@@H]1C(=O)N2[C@@H]1SC(C)(C)[C@@H]2C(=O)O [Oxacillin] shows Bliss interaction score at minimum 0.04?
## Result n

## Task hey, is Bliss interaction score for this one >= 0.04? CC1(C)S[C@@H]2[C@H](NC(=O)[C@H](N)c3ccc(O)cc3)C(=O)N2[C@H]1C(=O)O [Amoxicillin] + Oc1cc(Cl)ccc1Oc1ccc(Cl)cc1Cl [Triclosan]
## Result n

## Task API: above_or_equal(metric=Bliss interaction score, cutoff=0.04) for item CCCCCCCCCC(=O)N[C@@H](Cc1c[nH]c2ccccc12)C(=O)N[C@H](CC(N)=O)C(=O)N[C@@H](CC(=O)O)C(=O)N[C@@H]1C(=O)NCC(=O)N[C@@H](CCCN)C(=O)N[C@@H](CC(=O)O)C(=O)N[C@H](C)C(=O)N[C@@H](CC(=O)O)C(=O)NCC(=O)N[C@H](CO)C(=O)N[C@@H]([C@H](C)CC(=O)O)C(=O)N[C@@H](CC(=O)c2ccccc2N)C(=O)O[C@@H]1C [Daptomycin] + C/C(=C\C(=O)OCCCCCCCCC(=O)O)C[C@@H]1OC[C@H](C[C@@H]2O[C@H]2[C@@H](C)[C@H](C)O)[C@@H](O)[C@H]1O [Pseudomonic acid]
## Result y

## Task // inclusive: Bliss interaction score at least 0.04? input: Cn1nnc(-c2ccc(-c3ccc(N4C[C@H](CO)OC4=O)cc3F)cn2)n1 [Tedizolid] + CN[C@H](CC(C)C)C(=O)N[C@H]1C(=O)N[C@@H](CC(N)=O)C(=O)N[C@H]2C(=O)N[C@H]3C(=O)N[C@H](C(=O)N[C@H](C(=O)O)c4cc(O)cc(O)c4-c4cc3ccc4O)[C@H](O)c3ccc(c(Cl)c3)Oc3cc2cc(c3O[C@@H]2O[C@H](CO)[C@@H](O)[C@H](O)[C@H]2O[C@H]2C[C@](C)(N)[C@H](O)[C@H](C)O2)Oc2ccc(cc2Cl)[C@H]1O
## Result y

## Task Hi, just wondering whether CN(C)C(=O)C(CCN1CCC(O)(c2ccc(Cl)cc2)CC1)(c1ccccc1)c1ccccc1 [Loperamide] + Cc1ncc([N+](=O)[O-])n1CCO [Metronidazole] shows Bliss interaction score of 0.04 or higher.
## Result y

## Task Textbook exercise: given the entry CO/N=C(\C(=O)N[C@@H]1C(=O)N2C(C(=O)[O-])=C(C[N+]3(C)CCCC3)CS[C@H]12)c1csc(N)n1 [Cefepime] + COc1cc(Cc2cnc(N)nc2N)cc(OC)c1OC [Trimethoprim] , state whether its Bliss interaction score is greater than or equal to 0.04.
## Result y

## Task Hello, I need to know if CC1(C)S[C@@H]2[C@H](NC(=O)[C@H](N)c3ccc(O)cc3)C(=O)N2[C@H]1C(=O)O [Amoxicillin] + CC1=C(C(=O)O)N2C(=O)[C@@H](NC(=O)[C@H](N)c3ccccc3)[C@H]2SC1 [Cephalexin] has measured Bliss interaction score not below 0.04. Thanks!
## Result y

## Task Quick check, Bliss interaction score >= 0.04? CN(C)C(=O)C(CCN1CCC(O)(c2ccc(Cl)cc2)CC1)(c1ccccc1)c1ccccc1 [Loperamide] + CO[C@@]12[C@H](COC(N)=O)C3=C(C(=O)C(C)=C(N)C3=O)N1C[C@@H]1N[C@@H]12 [MitomycinC]
## Result n

## Task Tell me whether Bliss interaction score is at least 0.04 here: CO/N=C(\C(=O)N[C@@H]1C(=O)N2C(C(=O)[O-])=C(C[N+]3(C)CCCC3)CS[C@H]12)c1csc(N)n1 [Cefepime] + Cc1cc(NS(=O)(=O)c2ccc(N)cc2)no1 [Sulfamethoxazol]
## Result y

## Task Test whether the compound CN(C)C(=O)C(CCN1CCC(O)(c2ccc(Cl)cc2)CC1)(c1ccccc1)c1ccccc1 [Loperamide] + C[n+]1ccc(-c2cc[n+](C)cc2)cc1 [Paraquat] records Bliss interaction score of 0.04 or higher.
## Result n

## Task In plain terms: is recorded Bliss interaction score at least 0.04 for CC1(C)S[C@@H]2[C@H](NC(=O)[C@H](N)c3ccc(O)cc3)C(=O)N2[C@H]1C(=O)O [Amoxicillin] + CC1(C)S[C@@H]2[C@H](NC(=O)Cc3ccccc3)C(=O)N2[C@H]1C(=O)O [PenicillinG] ?
## Result n

## Task Hi, just wondering whether CCN(CC)CCOC(=O)c1ccc(N)cc1 [Procaine] + Cc1cc(NS(=O)(=O)c2ccc(N)cc2)no1 [Sulfamethoxazol] shows Bliss interaction score of 0.04 or higher.
## Result n

## Task Item CC1(C)S[C@@H]2[C@H](NC(=O)[C@H](N)c3ccc(O)cc3)C(=O)N2[C@H]1C(=O)O [Amoxicillin] + CN1C2=CC=CC=C2N=C3C1=CC=CC3=O [Pyocyanin] with Bliss interaction score of 0.04 or above?
## Result n

## Task Dear colleague, could you confirm whether CC1(C)S[C@@H]2[C@H](NC(=O)[C@H](N)c3ccc(O)cc3)C(=O)N2[C@H]1C(=O)O [Amoxicillin] + C[C@H]1COc2c(N3CCN(C)CC3)c(F)cc3c(=O)c(C(=O)O)cn1c23 [Levofloxacin] has Bliss interaction score at or above 0.04?
## Result y
